# key: entry, value: EC50
Molecular target: T1, human claudin 18 isoform 2 (claudin 18.2) (human)
T1 construct: Recombinant on transfected CHO cells (CHO-CLDN18.2) or endogenous on tumor cell lines PATU8988S, NUGC-4, KATOIII; the cell line is named under assay; also called CLDN18.2
Assay: imaging, PATU8988S cells (endogenous CLDN18.2); +++ = EC50 between 2 nM and 20 nM

[
  {
    "binder": "Ms20 (antibody, V domains shown) VH: EIQLQQSGPELMKPGASVKISCKASGYSFTSYYMHWVKQSHGKSLEWIGYFDPYNGGTNYNQKFKGKATLTADKSSSTAYMHLSSLTSEDSAVYYCACYRFFAVWGAGTTVTVSS VL: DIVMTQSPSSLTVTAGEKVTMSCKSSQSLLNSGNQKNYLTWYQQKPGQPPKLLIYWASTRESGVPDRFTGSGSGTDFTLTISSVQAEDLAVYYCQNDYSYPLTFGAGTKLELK",
    "EC50": "2 to 20 nM"
  }
]

Quick note, EC50 for Ms7 (antibody, V domains shown) VH: EVKLVESGGDLVQPGGSLRLSCTTPGFTFSDFYMEWVRQPPGKRLEWIAASRNKANDYTTENSASVKGRFIVSRDTSQSILYLQMNALRAEDTAIYYCARDACPWDWFAYWGQGTLVTVSA VL: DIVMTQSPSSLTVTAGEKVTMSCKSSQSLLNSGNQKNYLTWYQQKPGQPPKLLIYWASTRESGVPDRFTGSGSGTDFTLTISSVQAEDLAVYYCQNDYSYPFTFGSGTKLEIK landed at 2 to 20 nM

Quick note, EC50 for Ms1 (antibody, V domains shown) VH: EIQLQQSGPELVKPGASVKVSCKASGYAYTRYNMYWVKQSHGKSLEWIGYIDPYNGGTNYNQKFKGKATLTVDKSSSTAYMHLNSLTSEDSAVYYCARGGYYGNAMDYWGQGTSVTVSS VL: DIVMTQSPSSLTVTAGEKVTMSCKSSQSLLNSGNQKNYLTWYQQKPGQPPKLLIYWASTRESGVPDRFTGSGSGTDFTLTISSVQAEDLSIYYCQSNYIYPFTFGAGTTLELQ landed at 2 to 20 nM

Reference for the values: patent US20230067757A1
